Each entry below carries its reported protein stability index.
B1: RTN1 (parent)
chain: VVAYLALAALSATISFRIYKSVLQ

Variants of: B1
Assay: protein stability index of a GFP-peptide fusion (GPS, HEK-293T) (PSI 1-6); higher = more stable;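 note: lentivirally expressed fusions sorted by FACS into six bins by GFP to DsRed ratio, PSI derived from sequencing read proportions per bin multiplied by bin number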
Conditions: c terminus: a fixed tail appended
Kindly provide the number alone.

Variant Code	Value Measured
V2L	2.63
A9M	1.46
T13H	2.61
V1M	2.21

--- query ---
Incoming: Answer with reported protein stability index of S11A
Outgoing: 3.26
